Molecular target: T1, human IL-18BP (human, UniProt O95998 31-194)
T1 construct: UniProt printed as 095998; also called hIL-18BP
T1 sequence: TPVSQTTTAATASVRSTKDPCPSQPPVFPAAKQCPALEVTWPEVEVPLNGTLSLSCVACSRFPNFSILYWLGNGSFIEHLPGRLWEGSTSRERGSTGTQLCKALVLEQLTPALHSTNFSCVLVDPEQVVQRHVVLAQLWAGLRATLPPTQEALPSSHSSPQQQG
Assay: BLI, apparent KD
Each entry below carries its reported Kd.

| Binder | Kd (pM) |
| --- | --- |
| SA301a HC-Y100E (antibody, V domains shown) VH: QVQLQESGPGLVKPSQTLSLTCTVSGYSITSDYNSHWIRQPPGKGLEWIGYIHYSGSTNYNPSLKSRVTISRDTSKNQFSLKLSSVTAADTAVYYCARNYGSIEVNYFDYWGQGTLVTVSS VL: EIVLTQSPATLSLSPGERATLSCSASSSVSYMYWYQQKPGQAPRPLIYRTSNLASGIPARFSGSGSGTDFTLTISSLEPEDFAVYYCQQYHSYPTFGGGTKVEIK | 610 |
| SA301a HC-I99P (antibody, name in Kabat numbering, V domains shown, IgG1 kappa) VH: QVQLQESGPGLVKPSQTLSLTCTVSGYSITSDYNSHWIRQPPGKGLEWIGYIHYSGSTNYNPSLKSRVTISRDTSKNQFSLKLSSVTAADTAVYYCARNYGSPYVNYFDYWGQGTLVTVSS VL: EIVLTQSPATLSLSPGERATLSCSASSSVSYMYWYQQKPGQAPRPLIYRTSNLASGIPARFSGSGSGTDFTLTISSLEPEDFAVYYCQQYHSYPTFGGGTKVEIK | 410 |
| SA301a HC-I99V (antibody, name in Kabat numbering, V domains shown, IgG1 kappa) VH: QVQLQESGPGLVKPSQTLSLTCTVSGYSITSDYNSHWIRQPPGKGLEWIGYIHYSGSTNYNPSLKSRVTISRDTSKNQFSLKLSSVTAADTAVYYCARNYGSVYVNYFDYWGQGTLVTVSS VL: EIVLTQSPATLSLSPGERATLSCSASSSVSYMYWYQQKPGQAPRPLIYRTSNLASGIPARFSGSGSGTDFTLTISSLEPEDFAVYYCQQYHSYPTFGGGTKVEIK | 50 |
